Tested on: human SKM-1 acute myeloid leukemia cells
ASSAY_DETAILS: SKM-1 antiproliferation cell-based assay (ATPlite)
EXPERIMENTAL_SETUP: Homo sapiens, SKM-1, 96 h, SKM-1 antiproliferation assay, 4 days, Table C2
Entries and their measured GI50 follow.

>  <COMPOUND>
Cn1ccn(-c2ccc(-c3cc(F)cc(-c4ccnc(N5CCC(O)(CO)C5)c4)c3O)cc2Cl)c1=O (stereo not shown)

>  <GI50>
0.3 to 30 nM

$$$$
>  <COMPOUND>
Cn1ccn(-c2ccc(-c3cc(F)cc(-c4ccnc(N5CCNCCC5=O)c4)c3O)cc2Cl)c1=O

>  <GI50>
30 to 300 nM

$$$$
>  <COMPOUND>
Cn1ccn(-c2ccc(-c3cc(F)cc(-c4ccnc(N5CCNCC5=O)c4)c3O)cc2Cl)c1=O

>  <GI50>
30 to 300 nM

$$$$
>  <COMPOUND>
CN1CCN(c2ccc(-c3cc(Cl)cc(-c4ccnc(N5CCNCC5)c4)c3O)cc2Cl)C1=O

>  <GI50>
30 to 300 nM

$$$$
>  <COMPOUND>
Cn1ccn(-c2ccc(-c3cc(F)cc(-c4ccnc(N5CCN6CCCC6C5)c4)c3O)cc2Cl)c1=O (stereo not shown)

>  <GI50>
0.3 to 30 nM

$$$$
>  <COMPOUND>
Cn1ccn(-c2ccc(-c3cc(F)cc(-c4ccc(Cl)c(N5CC[C@@](C)(O)C5)c4)c3O)cc2Cl)c1=O

>  <GI50>
30 to 300 nM

$$$$
>  <COMPOUND>
Cn1ccn(-c2ccc(-c3cc(F)cc(-c4ccnc(N5CC[C@H](N)C5)c4)c3N)cc2Cl)c1=O

>  <GI50>
30 to 300 nM

$$$$

---

Entries and their measured GI50 follow.
Tested on: human SKM-1 acute myeloid leukemia cells
ASSAY_DETAILS: SKM-1 antiproliferation cell-based assay (ATPlite)
EXPERIMENTAL_SETUP: Homo sapiens, SKM-1, 96 h, SKM-1 antiproliferation assay, 4 days, Table C2

>  <COMPOUND_STRUCTURE_STRING>
COc1ncc(-c2cc(F)cc(-c3ccc(-n4ccn(C)c4=O)c(Cl)c3)c2O)cc1N1CCN(C(C)C)CC1

>  <GI50>
0.0003 to 0.03 µM

$$$$
>  <COMPOUND_STRUCTURE_STRING>
Cn1ccn(-c2ccc(-c3cc(F)cc(-c4cncc(N5CC[C@](C)(O)C5)c4)c3O)cc2Cl)c1=O

>  <GI50>
0.0003 to 0.03 µM

$$$$
>  <COMPOUND_STRUCTURE_STRING>
CC(C)N1CCN(c2cc(-c3cc(F)cc(-c4ccc(-n5ccn(C)c5=O)c(Cl)c4)c3O)ccn2)CC1

>  <GI50>
0.0003 to 0.03 µM

$$$$
>  <COMPOUND_STRUCTURE_STRING>
CN1CC2(C1)CN(c1cc(-c3cc(F)cc(-c4ccc(-n5ccn(C)c5=O)c(Cl)c4)c3O)ccn1)C2

>  <GI50>
0.0003 to 0.03 µM

$$$$
>  <COMPOUND_STRUCTURE_STRING>
CN1CCN(c2ccc(-c3cc(F)cc(-c4ccnc(N5CCC(N)CC5)c4)c3O)cc2Cl)C1=O

>  <GI50>
0.03 to 0.3 µM

$$$$
>  <COMPOUND_STRUCTURE_STRING>
Cn1ccn(-c2ccc(-c3cc(F)cc(-c4cncc(N5CCN(C(C)(C)C)CC5)c4)c3O)cc2Cl)c1=O

>  <GI50>
0.0003 to 0.03 µM

$$$$
>  <COMPOUND_STRUCTURE_STRING>
CCc1cc(-c2ccnc(N3CCNCC3)c2)c(O)c(-c2ccc(N3CCN(C)C3=O)c(Cl)c2)c1

>  <GI50>
0.3 to 3 µM

$$$$
>  <COMPOUND_STRUCTURE_STRING>
Cn1ccn(-c2ccc(-c3cc(F)cc(-c4ccnc(N5CCNCC5)c4)c3O)cc2Cl)c1=O

>  <GI50>
0.0003 to 0.03 µM

$$$$
>  <COMPOUND_STRUCTURE_STRING>
CC(C)N1CCN(c2cc(-c3cc(F)cc(-c4ccc(-n5ccn(C)c5=O)c(Cl)c4)c3O)cc3c2cnn3C)CC1

>  <GI50>
0.0003 to 0.03 µM

$$$$
>  <COMPOUND_STRUCTURE_STRING>
CC(=O)NCCOc1ncc(-c2cc(F)cc(-c3ccc(N4CCN(C)C4=O)c(Cl)c3)c2O)cc1N1CCNCC1

>  <GI50>
0.03 to 0.3 µM

$$$$
>  <COMPOUND_STRUCTURE_STRING>
Cn1ccn(-c2ccc(-c3cc(F)cc(-c4ccnc(N5CCCCC5)c4)c3O)cc2Cl)c1=O

>  <GI50>
0.3 to 3 µM

$$$$
>  <COMPOUND_STRUCTURE_STRING>
Cn1ccn(-c2ccc(-c3cc(F)cc(-c4cncc(N5CC[C@@H](O)[C@H](N)C5)c4)c3O)cc2Cl)c1=O

>  <GI50>
0.03 to 0.3 µM

$$$$
>  <COMPOUND_STRUCTURE_STRING>
Cn1ccn(-c2ccc(-c3cc(F)cc(-c4ccnc(N5C[C@@H](O)[C@H](O)C5)c4)c3O)cc2Cl)c1=O

>  <GI50>
0.0003 to 0.03 µM

$$$$
>  <COMPOUND_STRUCTURE_STRING>
Cn1ccn(-c2ccc(-c3cc(F)cc(-c4cc(N5C[C@@H](N)C6(CC6)C5)c5cn[nH]c5c4)c3O)cc2Cl)c1=O

>  <GI50>
0.0003 to 0.03 µM

$$$$
>  <COMPOUND_STRUCTURE_STRING>
[2H]C([2H])([2H])n1ccn(-c2ccc(-c3cc(F)cc(-c4ccnc(N5CCNCC5)c4)c3O)cc2Cl)c1=O

>  <GI50>
0.0003 to 0.03 µM

$$$$
>  <COMPOUND_STRUCTURE_STRING>
CN1CCN(c2ccc(-c3cccc(-c4ccc5[nH]c6c(c5c4)CNCC6)c3O)cc2Cl)C1=O

>  <GI50>
≥ 3 µM

$$$$
>  <COMPOUND_STRUCTURE_STRING>
C[C@@H]1CN(c2cc(-c3cc(F)cc(-c4ccc(-n5ccn(C)c5=O)c(Cl)c4)c3O)cc3[nH]ccc23)CCN1

>  <GI50>
0.0003 to 0.03 µM

$$$$
>  <COMPOUND_STRUCTURE_STRING>
CC(C)N1CCN(c2cc(-c3cc(F)cc(-c4ccc(-n5ccn(C)c5=O)c(Cl)c4)c3O)cnc2C(F)(F)F)CC1

>  <GI50>
0.0003 to 0.03 µM

$$$$
>  <COMPOUND_STRUCTURE_STRING>
CC(=O)N[C@@]1(C)CCN(c2cc(-c3cc(F)cc(-c4ccc(-n5ccn(C)c5=O)c(Cl)c4)c3O)cc(=O)n2C)C1

>  <GI50>
0.03 to 0.3 µM

$$$$
>  <COMPOUND_STRUCTURE_STRING>
CN1CCN(c2ccc(-c3cccc(-c4ccnc(N5CCNCC5)c4)c3O)cc2F)C1=O

>  <GI50>
0.03 to 0.3 µM

$$$$
>  <COMPOUND_STRUCTURE_STRING>
Cn1ccn(-c2ccc(-c3cc(F)cc(-c4ccnc(N5CCN(C6COC6)CC5)c4)c3O)cc2Cl)c1=O

>  <GI50>
0.0003 to 0.03 µM

$$$$
>  <COMPOUND_STRUCTURE_STRING>
Cc1ccc(S(=O)(=O)n2ccc3c(N4CCN[C@H](C)C4)cc(-c4cc(F)cc(-c5ccc(-n6ccn(C)c6=O)c(Cl)c5)c4O)cc32)cc1

>  <GI50>
0.03 to 0.3 µM

$$$$
>  <COMPOUND_STRUCTURE_STRING>
CC(C)N1CCN(c2ccc(-c3cc(F)cc(-c4ccnc(N5CCNCC5)c4)c3O)cc2Cl)C1=O

>  <GI50>
≥ 3 µM

$$$$
>  <COMPOUND_STRUCTURE_STRING>
Cc1cc(-c2cc(-c3cn[nH]c3)cc(N3CCNCC3)c2)c(O)c(-c2ccc(-n3ccn(C)c3=O)c(Cl)c2)c1

>  <GI50>
0.0003 to 0.03 µM

$$$$
>  <COMPOUND_STRUCTURE_STRING>
Cn1ccn(-c2ccc(-c3cc(F)cc(-c4ccnc(N5CCN(C[C@@H](O)CO)CC5)c4)c3O)cc2Cl)c1=O

>  <GI50>
0.0003 to 0.03 µM

$$$$
>  <COMPOUND_STRUCTURE_STRING>
CC(=O)Nc1ccc(-c2cccc(-c3ccnc(N4CCNCC4)c3)c2O)cc1F

>  <GI50>
0.03 to 0.3 µM

$$$$
>  <COMPOUND_STRUCTURE_STRING>
C[C@@H]1CN(c2cccc(-c3cc(F)cc(-c4ccc(-n5ccn(C)c5=O)c(Cl)c4)c3O)c2)CCN1

>  <GI50>
0.0003 to 0.03 µM

$$$$
>  <COMPOUND_STRUCTURE_STRING>
Cn1ccn(-c2ccc(-c3cc(F)cc(-c4cc(-c5ccn[nH]5)nc(N5CCNCC5)c4)c3O)cc2Cl)c1=O

>  <GI50>
0.0003 to 0.03 µM

$$$$
